Tested on: Escherichia coli TOP10
Experiment: shrunken log2 fold change of peptide-encoding DNA abundance (4.5 h post-induction vs induction); higher = less antimicrobial activity (less host growth inhibition)
Conditions: time post-induction: 4.5 h; library: site-saturation at positions 5, 18, 19, 20
Cut-off -0.008 on shrunken log2 fold change, inclusive. At or above means met; below means not met.

>>> label_class("RRIRIRPPRLPRPRPRPKEMPRP")
"not met"
>>> label_class("RRIRMRPPRLPRPRPRPKEIPRP")
"met"
>>> label_class("RRIRLRPPRLPRPRPRPIMAPRP")
"met"
>>> label_class("RRIRARPPRLPRPRPRPAAWPRP")
"met"
>>> label_class("RRIRERPPRLPRPRPRPAFWPRP")
"met"
>>> label_class("RRIRHRPPRLPRPRPRPWPTPRP")
"met"
>>> label_class("RRIRSRPPRLPRPRPRPSEEPRP")
"not met"
>>> label_class("RRIRDRPPRLPRPRPRPTLNPRP")
"met"
>>> label_class("RRIRMRPPRLPRPRPRPDKAPRP")
"not met"
>>> label_class("RRIRNRPPRLPRPRPRPHPFPRP")
"not met"
>>> label_class("RRIRVRPPRLPRPRPRPEFEPRP")
"not met"
>>> label_class("RRIRMRPPRLPRPRPRPFFIPRP")
"not met"
>>> label_class("RRIRSRPPRLPRPRPRPWQPPRP")
"met"
>>> label_class("RRIRSRPPRLPRPRPRPELRPRP")
"met"

###

Measured shrunken log2 fold change, listed per entry for reference.
System: Escherichia coli TOP10;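 also: peptides expressed intracellularly from a pBAD plasmid library in pooled LB shake-flask culture, induced with 0.3% L-arabinose, DNA abundance read by NGS, three biological replicates, DESeq2 with apeglm shrinkage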
Assay: shrunken log2 fold change of peptide-encoding DNA abundance (4.5 h post-induction vs induction); higher = less antimicrobial activity (less host growth inhibition)
Settings: time post-induction: 4.5 h; library: site-saturation at positions 5, 18, 19, 20
Observed Property: shrunken log2 fold change

>>> observed("RRIRDRPPRLPRPRPRPHLLPRP")
0.0253
>>> observed("RRIRLRPPRLPRPRPRPFKPPRP")
0.2
>>> observed("RRIRPRPPRLPRPRPRPATVPRP")
-0.0314
>>> observed("RRIRMRPPRLPRPRPRPLFFPRP")
0.135
>>> observed("RRIRRRPPRLPRPRPRPLREPRP")
1.14
>>> observed("RRIRFRPPRLPRPRPRPGEAPRP")
0.416
>>> observed("RRIRDRPPRLPRPRPRPNHSPRP")
-0.33
>>> observed("RRIRNRPPRLPRPRPRPGSRPRP")
-0.0159
>>> observed("RRIRERPPRLPRPRPRPGICPRP")
-0.0398
>>> observed("RRIRARPPRLPRPRPRPFKEPRP")
-0.0239
>>> observed("RRIRMRPPRLPRPRPRPCHWPRP")
-0.022
>>> observed("RRIRARPPRLPRPRPRPWERPRP")
0.12
>>> observed("RRIRHRPPRLPRPRPRPQNKPRP")
-0.654
>>> observed("RRIRTRPPRLPRPRPRPSCGPRP")
-0.0561
>>> observed("RRIRTRPPRLPRPRPRPAEYPRP")
-0.162
>>> observed("RRIRARPPRLPRPRPRPYMMPRP")
-1.22
>>> observed("RRIRSRPPRLPRPRPRPDFMPRP")
-0.159
>>> observed("RRIRERPPRLPRPRPRPYHYPRP")
-0.102
>>> observed("RRIRMRPPRLPRPRPRPKSHPRP")
-0.0378
>>> observed("RRIRHRPPRLPRPRPRPMWEPRP")
-0.0441
>>> observed("RRIRPRPPRLPRPRPRPGYSPRP")
-0.0781
>>> observed("RRIRGRPPRLPRPRPRPDTDPRP")
1.01
>>> observed("RRIRIRPPRLPRPRPRPTYIPRP")
-1.29
>>> observed("RRIRSRPPRLPRPRPRPAETPRP")
0.114
>>> observed("RRIRWRPPRLPRPRPRPWQRPRP")
0.551
>>> observed("RRIRERPPRLPRPRPRPNSEPRP")
-0.391
>>> observed("RRIRCRPPRLPRPRPRPDCRPRP")
-0.195
>>> observed("RRIRERPPRLPRPRPRPYVEPRP")
-0.534
>>> observed("RRIRHRPPRLPRPRPRPQEDPRP")
-0.106
>>> observed("RRIRSRPPRLPRPRPRPHPAPRP")
-0.177
>>> observed("RRIRGRPPRLPRPRPRPYYFPRP")
0.0211
>>> observed("RRIRDRPPRLPRPRPRPSCRPRP")
-0.0363
>>> observed("RRIRGRPPRLPRPRPRPYARPRP")
0.416
>>> observed("RRIRVRPPRLPRPRPRPEQYPRP")
-0.394
>>> observed("RRIRHRPPRLPRPRPRPYFIPRP")
-1.14
>>> observed("RRIRARPPRLPRPRPRPIEDPRP")
-0.0663
>>> observed("RRIRVRPPRLPRPRPRPFMRPRP")
0.184
>>> observed("RRIRIRPPRLPRPRPRPAFFPRP")
0.0559
>>> observed("RRIRERPPRLPRPRPRPMFFPRP")
-0.0867
>>> observed("RRIRIRPPRLPRPRPRPPKTPRP")
-0.00537
>>> observed("RRIRHRPPRLPRPRPRPYAAPRP")
-0.519
>>> observed("RRIRIRPPRLPRPRPRPIVQPRP")
-0.158
>>> observed("RRIRSRPPRLPRPRPRPVFWPRP")
0.365
>>> observed("RRIRSRPPRLPRPRPRPVWGPRP")
0.185
>>> observed("RRIRQRPPRLPRPRPRPPNWPRP")
0.358
>>> observed("RRIRDRPPRLPRPRPRPVDRPRP")
0.358
>>> observed("RRIRFRPPRLPRPRPRPWDNPRP")
-0.298
>>> observed("RRIRRRPPRLPRPRPRPRPNPRP")
0.624
>>> observed("RRIRQRPPRLPRPRPRPNNSPRP")
-0.904
>>> observed("RRIRWRPPRLPRPRPRPGGRPRP")
0.418
>>> observed("RRIRSRPPRLPRPRPRPPAVPRP")
0.711
>>> observed("RRIRGRPPRLPRPRPRPDYDPRP")
0.157
>>> observed("RRIRFRPPRLPRPRPRPGGCPRP")
0.432
>>> observed("RRIRDRPPRLPRPRPRPCICPRP")
0.159
>>> observed("RRIRCRPPRLPRPRPRPLRTPRP")
1.01
>>> observed("RRIRRRPPRLPRPRPRPAVAPRP")
0.66
>>> observed("RRIRCRPPRLPRPRPRPDPEPRP")
-0.0407
>>> observed("RRIRPRPPRLPRPRPRPHIPPRP")
-0.492
>>> observed("RRIRPRPPRLPRPRPRPFRHPRP")
-0.191
>>> observed("RRIRHRPPRLPRPRPRPDLVPRP")
-0.104
>>> observed("RRIRDRPPRLPRPRPRPYPGPRP")
-0.0524
>>> observed("RRIRFRPPRLPRPRPRPIVSPRP")
0.303
>>> observed("RRIRRRPPRLPRPRPRPTEKPRP")
0.155
